Values compiled from ChEMBL document CHEMBL1201862.

Listing of entries alongside the reported GI50.
- System: LXFL 529
- method_summary: NCI tumour cell line growth inhibition, 48 h
The source made the active and inactive calls. Cut-off read from the data, not from the text of the source: active = GI50 up to about 1.1 µM and inactive = higher.

# molecule, GI50
measured = [
    ("CC(NS(=O)(=O)c1ccc([N+](=O)[O-])cc1)C(=O)O (stereo not given)", "> 100 µM (inactive)"),
    ("Cc1ccc(NC(=O)OCC(COc2ccc(Cl)cc2Cl)OC(=O)Nc2ccc(C)cc2)cc1 (stereo not given)", "81.5 µM (inactive)"),
    ("CCC(C)OC(=O)C1C2CCC(O2)C1C(=O)O (stereo not given)", "> 62.7 µM (inactive)"),
    ("COC(=O)C1=C(C[S+]([O-])c2ccc([N+](=O)[O-])cc2[N+](=O)[O-])C2C=CC1C2 (stereo not given)", "22.2 µM (inactive)"),
    ("CN(C)C(=S)/N=c1\\ss/c(=N\\C(=S)N(C)C)n1Cc1ccco1", "> 100 µM (inactive)"),
]

----------
- Test system: IGROV-1
- method_summary: NCI tumour cell line growth inhibition, 48 h
Calls of active or inactive are those of the source. Rule as the data show it: active = GI50 up to about 1.1 µM and inactive = higher.
Outcome codes: active, inactive

# compound, category
records = [
    ("CCCCCC(=O)C(C)C1=Nc2nnc(CCCCCCCc3nnc4n3C(=O)C(C(C)C(=O)CCCCC)=N4)n2C1=O (centres undefined)", "inactive"),
    ("CN(C)c1ccc(/C=c2/c3ccccc3n3c2cc(/C=C/c2ccccc2)[n+]3C)cc1", "active"),
    ("NCCCN(CCCCN(CCCN)Cc1ccccc1)Cc1ccccc1", "inactive"),
    ("Cc1c(-c2coc(-c3ccc([N+](=O)[O-])cc3)n2)c(=O)n(-c2ccccc2)n1C", "inactive"),
    ("COc1cccc(N2C(Cl)C(=O)C2c2c[nH]c3ccccc23)c1 (centres undefined)", "inactive"),
    ("COc1cc2c(cc1OCCCC(=O)Nc1cc(C(=O)NCCCN(C)C)n(C)n1)N=CC1CCCN1C2=O (centres undefined)", "inactive"),
    ("CC(NS(=O)(=O)c1ccc([N+](=O)[O-])cc1)C(=O)O (centres undefined)", "inactive"),
    ("CC1=NN=C(N)N/C1=C\\C(Sc1ccc(Cl)cc1)c1ccc(Cl)cc1Cl (centres undefined)", "inactive"),
    ("O=C1[C@@H]2C3C=CC([C@H]4C(=O)N(CO)C(=O)[C@@H]34)[C@@H]2C(=O)N1CO", "inactive"),
]

----------
- Tested on: Malme-3M
- method_summary: NCI tumour cell line growth inhibition, 48 h
Active and inactive are the calls of the source. Rule as the data show it: active = GI50 up to about 1.1 µM and inactive = higher.

# molecule, GI50
records = [
    ("COC(=O)C1=C(C[S+]([O-])c2ccc([N+](=O)[O-])cc2[N+](=O)[O-])C2C=CC1C2 (stereo not given)", "21.4 µM (inactive)"),
    ("CC(=O)O[C@H]1CCC2[C@@H]3CCC4Cc5nc6c(nc5C[C@]4(C)C3CC[C@@]21C)CC1CC[C@@H]2C(CC[C@@]3(C)C2CC[C@@H]3C(C)CCCC(C)C)[C@@]1(C)C6 (stereo not given in full)", "> 100 µM (inactive)"),
    ("NC(=O)c1ncn2c(=O)n(CCl)nnc12", "> 100 µM (inactive)"),
    ("CCOC(=O)CC(=O)Sc1ccccc1", "25.6 µM (inactive)"),
    ("Clc1nc(Cl)nc(NC23CC4CC(CC(C4)C2)C3)n1", "16.2 µM (inactive)"),
]

----------
Listing of entries alongside the reported GI50.
- Test system: SF-295
- method_summary: NCI tumour cell line growth inhibition, 48 h
Calls of active or inactive are those of the source. No stated cut-off is given here; in the data, active = GI50 up to about 1.1 µM and inactive = higher.
measurement_label: GI50

# molecule, assayed_system, measurement_label, result
records = [
    ("O=C(N[C@@H](c1ccccc1)[C@@H](O)C(=O)OCc1ccc([N+](=O)[O-])cc1)c1ccccc1", "SF-295", "GI50", "> 10 µM (inactive)"),
    ("CC1OC(n2cc(F)c(=O)[nH]c2=O)C(O[Si](C)(C)C(C)(C)C)C1O[Si](C)(C)C(C)(C)C (configuration not stated)", "SF-295", "GI50", "11.5 µM (inactive)"),
    ("CCCCNc1nc(NC2OCC(OC(C)=O)C(OC(C)=O)C2OC(C)=O)c(N=O)c(=O)n1C (configuration not stated)", "SF-295", "GI50", "> 10 µM (inactive)"),
    ("CC(=O)O[C@H]1CCC2[C@@H]3CCC4Cc5nc6c(nc5C[C@]4(C)C3CC[C@@]21C)CC1CC[C@@H]2C(CC[C@@]3(C)C2CC[C@@H]3C(C)CCCC(C)C)[C@@]1(C)C6 (some centres not stated)", "SF-295", "GI50", "> 100 µM (inactive)"),
    ("CCC(C)OC(=O)C1C2CCC(O2)C1C(=O)O (configuration not stated)", "SF-295", "GI50", "> 100 µM (inactive)"),
    ("CCOC(=O)c1[nH]c2c(OC)n[n+]([O-])cc2c1[N+](=O)[O-]", "SF-295", "GI50", "37.2 µM (inactive)"),
    ("O=P1(c2ccccc2)c2ccccc2-c2ccccc21", "SF-295", "GI50", "57.8 µM (inactive)"),
    ("COC(=O)/C=C/c1c(CC=C(C)C)ncn1C", "SF-295", "GI50", "24.4 µM (inactive)"),
    ("Cc1cc(OCC(=O)O)c(Cl)cc1Cl", "SF-295", "GI50", "> 100 µM (inactive)"),
    ("Nc1ncc2ncn(C3CCC(CO)O3)c2n1 (configuration not stated)", "SF-295", "GI50", "> 100 µM (inactive)"),
    ("COc1cc(OC)c2c(O)c3c(cc2c1)CC(C)(C)CC3=O", "SF-295", "GI50", "> 72.6 µM (inactive)"),
    ("COc1ccc(C(=O)Nc2ccccc2)cc1[N+](=O)[O-]", "SF-295", "GI50", "> 100 µM (inactive)"),
    ("CC(=O)NC1=C(Nc2ccc(C)cc2)C(=O)c2ccccc2C1=O", "SF-295", "GI50", "18.2 µM (inactive)"),
    ("COC1(CC[C@@H](C)COC2OC(CO)C(O)C(O)C2O)O[C@H]2C[C@H]3[C@@H]4CC=C5C[C@@H](OC6OC(CO)C(OC7OC(C)C(O)C(O)C7O)C(O)C6OC6OC(C)C(O)C(O)C6O)CC[C@]5(C)[C@H]4CC[C@]3(C)[C@H]2[C@@H]1C (some centres not stated)", "SF-295", "GI50", "2.82 µM (inactive)"),
    ("CC(=O)NNc1nc(C)c(C(=O)NNC(=O)C(=O)Nc2c(C)cccc2C)s1", "SF-295", "GI50", "40.6 µM (inactive)"),
    ("c1ccc(CN2C3C4N(Cc5ccccc5)C2C2N(Cc5ccccc5)C(C(N2Cc2ccccc2)N4Cc2ccccc2)N3Cc2ccccc2)cc1", "SF-295", "GI50", "> 100 µM (inactive)"),
    ("CC(O)C(O)C(O)C(/C=N\\Nc1ccccc1)=N/Nc1ccccc1 (configuration not stated)", "SF-295", "GI50", "11.6 µM (inactive)"),
    ("O=[N+]([O-])c1cnn(C2=CNc3ccccc3N=C2)c1", "SF-295", "GI50", "> 100 µM (inactive)"),
    ("Cc1c2c(cc[n+]1C)O[B-](c1ccccc1)(c1ccccc1)O2", "SF-295", "GI50", "53.6 µM (inactive)"),
    ("C/C(=N\\NC(=O)c1ccncc1)c1ccccc1F", "SF-295", "GI50", "> 10 µM (inactive)"),
    ("CCCCc1c2c(c(C)c3c1C(=O)OC3)Oc1ccccc1O2", "SF-295", "GI50", "0.467 µM (active)"),
    ("N=C(N)NNC(=O)C(=O)O", "SF-295", "GI50", "> 100 µM (inactive)"),
    ("O=C(c1ccccc1)C1S(=O)(=O)OCCOS1(=O)=O", "SF-295", "GI50", "> 100 µM (inactive)"),
    ("CC(C)OCN/C(N)=N\\C#N", "SF-295", "GI50", "> 100 µM (inactive)"),
    ("Cc1cc([N+](=O)[O-])c(C)c(Br)c1C", "SF-295", "GI50", "> 100 µM (inactive)"),
    ("Cc1ccc(C(=O)N2CCN(C(=O)c3ccc(C)cc3)c3ccccc32)cc1", "SF-295", "GI50", "3.09 µM (inactive)"),
    ("CC(C)(O)C(O)COc1c2c(cc3oc(=O)ccc13)OCO2 (configuration not stated)", "SF-295", "GI50", "> 100 µM (inactive)"),
    ("COC(=O)c1c(C)c2c(c(C)c1O)OC(=O)c1c(C)cc(O)c(C=O)c1O2", "SF-295", "GI50", "> 100 µM (inactive)"),
    ("COc1ccc(Cc2n[nH]c(Nc3ccc(Br)cc3)nc2=O)cc1OC", "SF-295", "GI50", "> 100 µM (inactive)"),
    ("CC(=O)OCC1OC(n2c(Br)nc3c2c(=O)n(C)c(=O)n3C)C(OC(C)=O)C1OC(C)=O (configuration not stated)", "SF-295", "GI50", "> 100 µM (inactive)"),
    ("Cn1nc2ccc3nccc(N4CCN(CCO)CC4)c3c2n1", "SF-295", "GI50", "> 100 µM (inactive)"),
    ("Cc1cc(C)nc(NS(=O)(=O)c2ccc(NC(=O)c3cccn4c(=O)c5ccccc5nc34)cc2)n1", "SF-295", "GI50", "> 100 µM (inactive)"),
]
